method: isobaric coefficient of expansion
statedConditions: 278.15 K; 45000 kPa; Liquid; Microcalorimeter
assayReadout: isobaric coefficient of expansion

CCCC[n+]1cccc(C)c1.F[B-](F)(F)F [1-butyl-3-methylpyridinium tetrafluoroborate]	0.000566 1/K

[ask] Quick one: isobaric coefficient of expansion for CCCCCCCC[n+]1ccn(C)c1.F[B-](F)(F)F [1-methyl-3-octylimidazolium tetrafluoroborate] ?
[reply] 0.000562 1/K

[ask] Quick one: isobaric coefficient of expansion for CCCCCC[n+]1ccn(C)c1.O=S(=O)([N-]S(=O)(=O)C(F)(F)F)C(F)(F)F ?
[reply] 0.000602 1/K

[ask] Quick one: isobaric coefficient of expansion for CCCCCCn1cc[n+](C)c1.F[B-](F)(F)F [1-hexyl-3-methylimidazolium tetrafluoroborate] ?
[reply] 0.000562 1/K

[ask] Quick one: isobaric coefficient of expansion for CCn1cc[n+](C)c1.F[B-](F)(F)F [1-ethyl-3-methylimidazolium tetrafluoroborate] ?
[reply] 0.00056 1/K

[ask] Quick one: isobaric coefficient of expansion for CCn1cc[n+](C)c1.O=S(=O)([N-]S(=O)(=O)C(F)(F)F)C(F)(F)F ?
[reply] 0.000606 1/K
